# Test system: ragweed (common ragweed, Ambrosia elatior)
# PROTOCOL NOTES: Test A postemergence, ragweed
# Type: in vivo
# CONDITION: 500 g ai/ha, 0 to 100 scale
Recorded Plant response rating, Ragweed values for a group of compounds are listed next.

| COMPOUND | Plant response rating, Ragweed |
| --- | --- |
| C[C@H](Nc1ncc(C(F)(F)F)c(N)n1)c1cc2ccccc2s1 | 10 |
| CCC(Nc1ncc(C(F)(F)F)c(N)n1)c1cc2ccccc2o1 (racemic) | 60 |
| CC(Nc1ncc(C(F)(F)F)c(N)n1)c1csc2ccccc12 (stereo not drawn) | 60 |

* * *

# Tested on: pigweed (Amaranthus retroflexus)
# PROTOCOL NOTES: Test A preemergence, pigweed
# Type: in vivo
# CONDITION: 500 g ai/ha, 0 to 100 scale, 0 is no effect, 100 is complete control
# Source text: Seeds of plant species selected from barnyardgrass (Echinochloa crus-galli), kochia (Kochia scoparia), ragweed (common ragweed, Ambrosia elatior), ryegrass, Italian (Lolium multiflorum), foxtail, giant (Setaria faberii), foxtail, green (Setaria viridis), and pigweed (Amaranthus retroflexus) were planted into a blend of loam soil and sand and treated preemergence with a directed soil spray using test chemicals formulated in a non-phytotoxic solvent mixture which included a surfactant. […]
// values below are reported Pigweed plant response rating
MEASURED QUANTITY: Pigweed plant response rating

| COMPOUND | MEASURED QUANTITY | OBS VALUE |
| --- | --- | --- |
| Nc1nc(NC(c2cc3ccccc3s2)C2CC2)ncc1C(F)(F)F (racemic) [Compound 94] | Pigweed plant response rating | 100 |
| C[C@H](Nc1nc(N)c(C(F)(F)F)c(C(F)(F)F)n1)c1cc2ccccc2o1 [Compound 66] | Pigweed plant response rating | 0 |
| Cc1ccc2c([C@@H](Nc3ncc(C(F)(F)F)c(N)n3)C3CC3)coc2c1 [Compound 91] | Pigweed plant response rating | 0 |
| C[C@@H](Nc1ncc(C(F)(F)F)c(N)n1)c1cc2ccc(F)cc2s1 [Compound 46] | Pigweed plant response rating | 100 |
| CC[C@H](Nc1ncc(C(F)(F)F)c(N)n1)c1coc2ccccc12 [Compound 81] | Pigweed plant response rating | 10 |
